- System: MCF-7 (breast) cells
- Experimental details: MTS cell survival assay, MCF-7 (breast)
- Assay type: cell-based
- Cond: Homo sapiens, MCF7, 48 hours incubation, read-out: IC50 cell line MCF-7
Assay endpoint: IC50 (nM)
Respond with the bare value in nM.

Enquiry: Please give the measured IC50 for this compound: CC(=O)O[C@H](C[C@H](C(C)C)N(COC(=O)c1ccccc1)C(=O)C(NC(=O)C1CCCCN1C)C(C)C)c1nc(C(=O)N[C@H](CCC(=O)O)Cc2ccc(F)cc2)cs1 (some centres unmarked)
Return: 0.4

Enquiry: Try this compound next: CC[C@H](C)C(NC(=O)C1CCCCN1C)C(=O)N(COCC(C)C)[C@H](C[C@@H](OC(C)=O)c1nc(C(=O)N[C@@H](Cc2ccc(F)cc2)C[C@H](C)C(=O)O)cs1)C(C)C (some centres unmarked)
Return: 1.1

Enquiry: Try this compound next: CC[C@H](C)C(NC(=O)C1CCCN1C)C(=O)N(C)[C@H](C[C@@H](OC(C)=O)c1nc(C(=O)N[C@@H](Cc2ccc(F)cc2)C[C@H](C)C(=O)O)cs1)C(C)C (some centres unmarked)
Return: 1.1

Enquiry: Try this compound next: CCCN(C(=O)C(NC(=O)C1CCCCN1C)[C@@H](C)CC)[C@H](C[C@@H](OC(C)=O)c1nc(C(=O)N[C@@H](Cc2ccc(F)cc2)C[C@H](C)C(=O)O)cs1)C(C)C (some centres unmarked)
Return: 0.4

Enquiry: Try this compound next: CCCCCN(C(=O)C(NC(=O)C1CCCCN1C)[C@@H](C)CC)[C@H](C[C@@H](OC(C)=O)c1nc(C(=O)N[C@@H](Cc2ccc(F)cc2)C[C@H](C)C(=O)O)cs1)C(C)C (some centres unmarked)
Return: 0.6

Enquiry: Try this compound next: CC[C@H](C)C(NC(=O)C1CCCCN1C)C(=O)N(CC)[C@H](C[C@@H](O)c1nc(C(=O)N[C@H](CCN)Cc2ccc(F)cc2)cs1)C(C)C (some centres unmarked)
Return: 15.2

Enquiry: Try this compound next: CCCN(C(=O)C(NC(=O)C1CCCCN1C)[C@@H](C)CC)[C@H](C[C@@H](OC(C)=O)c1nc(C(=O)N[C@@H](Cc2ccc(-c3ccccc3)cc2)C[C@H](C)C(=O)O)cs1)C(C)C (some centres unmarked)
Return: 0.4

Enquiry: Try this compound next: CC[C@H](C)C(NC(=O)C1CCCCN1C)C(=O)N(C)[C@H](C[C@@H](OC(C)=O)c1nc(C(=O)N[C@@H](Cc2ccc(OC)cc2)C[C@H](C)C(=O)O)cs1)C(C)C (some centres unmarked)
Return: 0.6
